B1: 1ZHC (parent)
chain: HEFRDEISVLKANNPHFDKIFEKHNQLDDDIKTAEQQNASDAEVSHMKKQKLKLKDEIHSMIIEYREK

# Variants of: B1
# test_protocol: folding stability dG (cDNA display proteolysis); higher = more stable
# condition_notes: PBS, room temperature
measurement_kind: folding stability dG (kcal/mol)

# polymer_sequence, value_measured
measured = [
    ("HETRDEISVLKANNPHFDKIFEKHNQLDDDIKTAEQQNASDAEVSHMKKQKLKLKDEIHSMIIEYREK [F3T]", 0.328),
    ("HEFRDEISVLKANNPHFDKIFEKHNQLDDDIKTAEQQNASDAEVSHMKKQKLKLKDEIHSMIYEYREK [I63Y]", 0.129),
    ("HEVRDEISVLKANNPHFDKIFEKHNQLDDDIKTAEQQNASDAEVSHMKKQKLKLKDEIHSMIIEYREK [F3V]", 0.222),
    ("HEQRDEISVLKANNPHFDKIFEKHNQLDDDIKTAEQQNASDAEVSHMKKQKLKLKDEIHSMIIEYREK [F3Q]", 0.544),
    ("VEFRDEISVLKANNPHFDKIFEKHNQLDDDIKTAEQQNASDAEVSHMKKQKLKLKDEIHSMIIEYREK [H1V]", 0.768),
    ("HEFRDEISVLKANNPHFDIIFEKHNQLDDDIKTAEQQNASDAEVSHMKKQKLKLKDEIHSMIIEYREK [K19I]", 0.622),
    ("HEFRDEISVLKANNPHFDKIFEKHNQLDDDIKTHEQQNASDAEVSHMKKQKLKLKDEIHSMIIEYREK [A34H]", -0.482),
    ("HEFRDEISVLKANNPHFDKIFEKHNQLDDDIKTAEQQNASDAEVSHMKKQKLKLKDEIFSMIIEYREK [H59F]", 1.43),
    ("HMFRDEISVLKANNPHFDKIFEKHNQLDDDIKTAEQQNASDAEVSHMKKQKLKLKDEIHSMIIEYREK [E2M]", 0.855),
    ("HEFRDEISVLKANNPHFDKIFEKHNQLDDDIKTAEQQNASDAEVSHMKKQKLKLKDEIHSMIIEWREK [Y65W]", 0.961),
    ("HEFRDEISVLKANNPHFDKIFTKHNQLDDDIKTAEQQNASDAEVSHMKKQKLKLKDEIHSMIIEYREK [E22T]", 1.26),
    ("HEFRDEISVLKANNPHFDKIFEKHNQLDDDCKTAEQQNASDAEVSHMKKQKLKLKDEIHSMIIEYREK [I31C]", -0.874),
    ("HEFRDEISVLKSNNPHFDKIFEKHNQLDDDIKTAEQQNASDAEVSHMKKQKLKLKDEIHSMIIEYREK [A12S]", 0.404),
    ("HEFRDEISVLKANNPHFDKIFEKHNQLDDDIKTAEQQNASDAEVSHMKKQKLKLKDEIASMIIEYREK [H59A]", 0.525),
    ("HEFRDEMSVLKANNPHFDKIFEKHNQLDDDIKTAEQQNASDAEVSHMKKQKLKLKDEIHSMIIEYREK [I7M]", -0.64),
    ("HEFRDEISVLKANNPHFDKIFEKHNQLDDDIKTASQQNASDAEVSHMKKQKLKLKDEIHSMIIEYREK [E35S]", 0.162),
    ("HEFRDEISVLKANNPHFDKIFEKHNQLDDDIKTAEQQNASDAEVSHMKKQELKLKDEIHSMIIEYREK [K51E]", -0.779),
    ("HEFRDEISVLKANNPHFDKIFEKHNQLDDDIKTAEQQWASDAEVSHMKKQKLKLKDEIHSMIIEYREK [N38W]", -0.188),
    ("HEFRDEISVLKANNPHFDKIFEKHNQLDDDIKTAEQQNASDAEVSHMKKQKLKLKKEIHSMIIEYREK [D56K]", 1.22),
    ("HEFRDEISVAKANNPHFDKIFEKHNQLDDDIKTAEQQNASDAEVSHMKKQKLKLKDEIHSMIIEYREK [L10A]", -0.294),
    ("HEFRDEISVLKANNPHFDKIFEKHNQLDDDIKTAEQQNASDAEVSHMKKQKLKLKDEIHSMIIEYREN [K68N]", 0.792),
    ("HEFRDEISVLKANNPHFDKIFEKHNQLDDDIKTAEQQNASDAEVSHMKKQKLKLKDEIYSMIIEYREK [H59Y]", 1.61),
    ("HEFRDEISVLKANNPHFDKIFEKHNQLDDDIKTAEQQNASLAEVSHMKKQKLKLKDEIHSMIIEYREK [D41L]", 0.874),
    ("HEFRDEISVLGANNPHFDKIFEKHNQLDDDIKTAEQQNASDAEVSHMKKQKLKLKDEIHSMIIEYREK [K11G]", -0.572),
    ("HEFRDEISVLKANNPHFDKIFEKHNQLDDDIFTAEQQNASDAEVSHMKKQKLKLKDEIHSMIIEYREK [K32F]", 0.278),
    ("HEFRDEISVLKANNPHFDKIFEKHNQLDDDIKTAEQQNASDAEVSHMKKQKLKLKDEIHSMIIWYREK [E64W]", 0.701),
    ("HEFRDEISVLKANNPHFDKIFEKHNQLDDDIKTAEQQNASDAEVSHMKKTKLKLKDEIHSMIIEYREK [Q50T]", 0.433),
    ("HEFRDEISVLKANNPHFDKIFEKHNQLDDDIKTAEQQNASDAEVSHMKKQKLKLKCEIHSMIIEYREK [D56C]", 1.36),
    ("HEFRDEISVLKANNPHFDKIFEKHNQLDDDIKTAEQQNASDAEVSHMKKQKLKLKDHIHSMIIEYREK [E57H]", -0.994),
    ("HEFRDEISVLKANNPHFDVIFEKHNQLDDDIKTAEQQNASDAEVSHMKKQKLKLKDEIHSMIIEYREK [K19V]", 0.316),
    ("HEFRDEISVLKANNPHFDKIFERHNQLDDDIKTAEQQNASDAEVSHMKKQKLKLKDEIHSMIIEYREK [K23R]", 0.933),
    ("HEFRDEISVLKANNPHFDKIFEKHNQLDDDIKTAEQQNASDAEVSHMKKQKLKLKDEIVSMIIEYREK [H59V]", 1.3),
    ("HEFRDEISVLKANNPHFDKIFEKHNQLDHDIKTAEQQNASDAEVSHMKKQKLKLKDEIHSMIIEYREK [D29H]", 1.51),
    ("HEFRDEISVLKANNPHFDKIFEKHNQLGDDIKTAEQQNASDAEVSHMKKQKLKLKDEIHSMIIEYREK [D28G]", 0.786),
    ("HEFRREISVLKANNPHFDKIFEKHNQLDDDIKTAEQQNASDAEVSHMKKQKLKLKDEIHSMIIEYREK [D5R]", 0.858),
]

The reported numbers originate from the MegaScale stability set (Tsuboyama et al. 2023).
